# maps each entry to its melting point

Guide cases for melting point, answers given:
CC(NC(=O)OC(C)(C)C)C1CCN(c2c(F)cc3c(=O)[nH]c(=O)n4c3c2CCC4C)C1 (stereo not drawn)	123 to 125 °C
Oc1ccc2c(-c3noc4cc(O)ccc34)cccc2c1	268 to 288 °C
NS(=O)(=O)c1ccc(-c2cc3n(c2-c2ccc(F)cc2)CCC3)cc1	207 °C
O=C(Nc1ccccc1)Nc1cccc(-c2ccc(CC3SC(=O)NC3=O)cc2)c1 (stereo not drawn)	185 °C
Cc1cc(C(=O)NCOC(=O)CO)ncc1C(c1cc(F)ccc1F)S(=O)(=O)c1ccc(F)cc1 (stereo not drawn)	84 °C
C[C@H](NC(=O)OC(C)(C)C)C(=O)N[C@H]1CCNC1	137 to 138 °C
O=C(O)Cc1nc(-c2ccc(Cl)cc2)sc1Sc1ccccc1	191 to 193 °C
C#CCN(Cc1cc2c(=O)n(C)c(CN3CCN(c4ccccc4)CC3)nc2cc1Cl)c1ccc(C(=O)OC(C)(C)C)cc1	> 95 °C
COCc1cccc2oc(C(=O)O)c(C)c12	164 to 166 °C
C#CCOC(=O)c1cc(-n2c(=O)cc(C)n(C)c2=O)c(F)cc1C#N	174 to 177 °C

Q. Endpoint output: melting point of "CC(=O)c1ccc(OCCCCNS(=O)(=O)c2ccc(Br)cc2)cc1" . Value?
A. 129 to 130 °C

Q. Looking for the measured melting point of "O=C(O)c1ncccc1CCc1cccc(F)c1" , can you help?
A. 118 to 122 °C

Q. Name the reported melting point value associated with the compound "CCCCOc1ccc2c(=O)n(Cc3ccccc3)[nH]c2c1"
A. 148 to 149 °C

Q. Which melting point value belongs to CC(C)N1CC(CO)C(c2ccccc2)(c2ccccc2)C1=O (stereo not drawn) ?
A. 159 to 161 °C

Q. # input compound: CS(=O)(=O)Nc1ccc(C(=O)NCCN2CCc3ccsc3C2c2ccccc2)cc1 (stereo not drawn) ; wanted: its melting point
A. 185 to 187 °C

Q. Which melting point value is on record for "Cc1nc(N)nc(N)c1-c1c(Cl)cccc1Cl" ?
A. 250 °C

Q. Find the recorded melting point belonging to "CCCCOC(=O)CNC(=O)c1ncc(C(=O)OCCCC)cc1OC" and report it.
A. 80 to 81 °C

Q. What value of melting point has been reported for the following compound? "C=CC[C@@H](CO)[C@@H](O)[C@H](O)C(=O)CO"
A. 112 to 113 °C

Q. Using the record for "CCCc1c(/C=C/c2cc(OC)cc(OC)c2)nc2ccc(C(=O)O)cn2c1=O" , report its melting point.
A. 268 to 270 °C

Q. Look up melting point: "CCN(CC)C(=O)c1ccc(C(=C2CCNCC2)c2cccc3cccnc23)cc1"
A. > 170 °C

Measured values drawn from a melting point compilation (Tetko et al.; mined from patent text by program, amines drawn as free bases though some values may be those of a salt) for this set.
